The reported numbers originate from patent US10479780B2.

- system: human Src enzyme (Homo sapiens)
- Construct: purchased Carna Biosciences, Inc. 08-173
- Sequence (P12931 whole entry): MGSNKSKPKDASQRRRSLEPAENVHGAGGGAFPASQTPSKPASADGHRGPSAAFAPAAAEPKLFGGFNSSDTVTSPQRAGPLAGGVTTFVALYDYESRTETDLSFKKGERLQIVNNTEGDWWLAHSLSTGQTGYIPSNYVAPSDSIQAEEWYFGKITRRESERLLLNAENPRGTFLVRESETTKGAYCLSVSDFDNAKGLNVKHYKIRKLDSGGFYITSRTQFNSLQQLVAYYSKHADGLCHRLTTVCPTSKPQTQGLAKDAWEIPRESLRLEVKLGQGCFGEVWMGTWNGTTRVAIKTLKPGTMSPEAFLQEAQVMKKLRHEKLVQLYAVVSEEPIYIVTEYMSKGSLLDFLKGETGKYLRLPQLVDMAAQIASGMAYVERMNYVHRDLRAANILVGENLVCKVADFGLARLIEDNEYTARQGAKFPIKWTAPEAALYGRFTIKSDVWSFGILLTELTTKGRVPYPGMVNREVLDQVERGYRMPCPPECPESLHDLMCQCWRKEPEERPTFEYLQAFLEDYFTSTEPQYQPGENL
- method.notes: Src enzyme inhibitory activity (time-resolved fluorometry, biotinylated peptide phosphorylation)
- Type: biochemical
- measurement.conditions: read-out: SRC_IC50
reported.endpoint: IC50 (nM)

[[record]]
compound = "COc1cc2cc(C(=O)c3cnn(-c4ccc(Oc5ccccc5F)cc4C)c3N)[nH]c2cc1NS(=O)(=O)CC(=O)N1CCCC1"
reported_endpoint = "IC50"
reading = 30

[[record]]
compound = "Cc1cc(Oc2c(F)cccc2F)ncc1-n1ncc(C(=O)c2cc3cc(OC4CCN(C5CCC5)CC4)c(Br)cc3[nH]2)c1N"
reported_endpoint = "IC50"
reading = 6.4

[[record]]
compound = "Cc1cc(-n2ncc(C(=O)c3cc4cc(N5CCOCC5)c(Br)cc4[nH]3)c2N)ccc1Oc1ccccc1F"
reported_endpoint = "IC50"
reading = 600

[[record]]
compound = "Cc1cc(Oc2c(F)cccc2F)ncc1-n1ncc(C(=O)c2cc3cc(OCC(F)F)c(NS(=O)(=O)C4CCOCC4)cc3[nH]2)c1N"
reported_endpoint = "IC50"
reading = 88

[[record]]
compound = "Cc1cc2cc(C(=O)c3cnn(-c4cnc(Oc5c(F)cccc5F)cc4C)c3N)[nH]c2cc1N1C(=O)NC2(CCNC2)C1=O (centres unmarked)"
reported_endpoint = "IC50"
reading = 21

[[record]]
compound = "Cc1cc(Oc2ccc(F)cc2)ncc1-n1ncc(C(=O)c2cc3cc(F)c(NS(=O)(=O)C4CC4)cc3[nH]2)c1N"
reported_endpoint = "IC50"
reading = 160

[[record]]
compound = "Cc1cc(-n2ncc(C(=O)c3cc4cc(OC(F)F)c(NS(C)(=O)=O)cc4[nH]3)c2N)ccc1Oc1ccccc1F"
reported_endpoint = "IC50"
reading = 2000

[[record]]
compound = "CC(C)N1CCC(c2cc3cc(C(=O)c4cnn(-c5ccc(Oc6cccc(F)c6)cc5F)c4N)[nH]c3cc2F)CC1"
reported_endpoint = "IC50"
reading = 6.1

